system: 786-0 renal; assay: NCI-60 one-dose screen, 48 h; conditions: 10 µM unless noted
About 83,000 compounds went through this panel and 20% of them were active in at least one assay; those are over-represented in the sample as a whole. Active and inactive are the calls of the source. How the source made its calls: active means growth percent below 10; inactive means the rest.
Parameter call: string, one of true = active, false = inactive

Below are worked cases with known answers.
CC(C)Sc1nc(Cl)c(C#N)c(-c2ccc(F)cc2)n1 :: false
COc1ccc(C2CC(c3ccc(Nc4ccnc5cc(Cl)ccc45)cc3)=NN2C(C)=O)cc1 (stereo not drawn) :: false
COc1ccc(N2CCN(CC(=O)N3CCN(c4nnc(-c5ccc(Cl)cc5)c(-c5ccc(Cl)cc5)n4)CC3)CC2)cc1 :: false

Exercise: Assay result, entry CC(C)CC1NC(=O)C(CCCN)NC(=O)C(C(C)C)NC(=O)C2CCCN2C(=O)C(Cc2ccccc2)NC(=O)C(CC(C)C)NC(=O)C(CCCN)NC(=O)C(C(C)C)NC(=O)C2CCCN2C(=O)C(Cc2ccccc2)NC1=O (stereo not drawn) — outcome?
Key: true

Exercise: Please share the test call associated with "O=C(Nc1cccc(-n2cc(-c3ccncc3)c(-c3cc(O)cc(Cl)c3)n2)c1)Nc1ccc(Cl)c(Cl)c1" .
Key: true
